Here the recorded RALB is given for each entry.
organism: Rattus norvegicus; experiment: Open TG-GATES - Regimen: Daily Repeat; format: toxicity, organism-based, Sprague-Dawley; parameters: regimen Daily Repeat, gender Male, age 6 weeks; settings: in vivo, po, 0 mg/kg, 72 h, tissue Plasma, route gavage, dose level Control, time 3 day
Property measured: RALB (g/dL)

[[record]]
compound = "Cn1cnc([N+](=O)[O-])c1Sc1ncnc2nc[nH]c12"
unit_info = "g/dL"
measured_value = 3

[[record]]
compound = "CS(=O)(=O)Nc1ccc([N+](=O)[O-])cc1Oc1ccccc1 [NIMESULIDE]"
unit_info = "g/dL"
measured_value = 4

[[record]]
compound = "COc1ccc(Cl)cc1C(=O)NCCc1ccc(S(=O)(=O)NC(=O)NC2CCCCC2)cc1 [GLYBURIDE]"
unit_info = "g/dL"
measured_value = 3.5

[[record]]
compound = "C=CCO"
unit_info = "g/dL"
measured_value = 3.4

[[record]]
compound = "O=C1CN(/N=C/c2ccc(-c3ccc([N+](=O)[O-])cc3)o2)C(O)=N1"
unit_info = "g/dL"
measured_value = 3.8

[[record]]
compound = "Cc1cnc(NC(=O)C2=C(O)c3ccccc3S(=O)(=O)N2C)s1"
unit_info = "g/dL"
measured_value = 3.5

[[record]]
compound = "O=C1NC(=O)C(c2ccccc2)(c2ccccc2)N1"
unit_info = "g/dL"
measured_value = 3.1

[[record]]
compound = "COc1ccc(O)c(C(C)(C)C)c1.COc1ccc(O)cc1C(C)(C)C [BUTYLATED HYDROXYANISOLE]"
unit_info = "g/dL"
measured_value = 2.6

[[record]]
compound = "O=P1(N(CCCl)CCCl)NCCCO1 (stereo unspecified) [CYCLOPHOSPHAMIDE ANHYDROUS]"
unit_info = "g/dL"
measured_value = 3.1

[[record]]
compound = "Cc1cccc(Nc2cc(Cl)nc(SCC(=O)O)n2)c1C"
unit_info = "g/dL"
measured_value = 2.6

[[record]]
compound = "Cn1c(=O)c2c(ncn2C)n(C)c1=O"
unit_info = "g/dL"
measured_value = 3


###

species: Rattus norvegicus; assay: Open TG-GATES - Regimen: Single; assay type: toxicity, organism-based, Sprague-Dawley; parameters: regimen Single, gender Male, age 6 weeks; details: in vivo, po, 0 mg/kg, 6 h, tissue Blood, route gavage, dose level Control
Threshold 20%: Neu strictly smaller gives Condition met, otherwise Condition not met.

[[record]]
compound = "COc1ccc(Cl)cc1C(=O)NCCc1ccc(S(=O)(=O)NC(=O)NC2CCCCC2)cc1 [GLYBURIDE]"
class_label = "Condition not met"

[[record]]
compound = "C=CCO"
class_label = "Condition not met"

[[record]]
compound = "Cn1cnc([N+](=O)[O-])c1Sc1ncnc2nc[nH]c12"
class_label = "Condition not met"

[[record]]
compound = "S=C=Nc1cccc2ccccc12 [1-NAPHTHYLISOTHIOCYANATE]"
class_label = "Condition met"

[[record]]
compound = "Cc1cccc(Nc2cc(Cl)nc(SCC(=O)O)n2)c1C"
class_label = "Condition not met"

[[record]]
compound = "CS(=O)(=O)Nc1ccc([N+](=O)[O-])cc1Oc1ccccc1 [NIMESULIDE]"
class_label = "Condition met"

[[record]]
compound = "COc1ccc(O)c(C(C)(C)C)c1.COc1ccc(O)cc1C(C)(C)C [BUTYLATED HYDROXYANISOLE]"
class_label = "Condition not met"

